system-name: PIP4K2A (Homo sapiens, UniProt P48426)
Sequence (P48426 2-406): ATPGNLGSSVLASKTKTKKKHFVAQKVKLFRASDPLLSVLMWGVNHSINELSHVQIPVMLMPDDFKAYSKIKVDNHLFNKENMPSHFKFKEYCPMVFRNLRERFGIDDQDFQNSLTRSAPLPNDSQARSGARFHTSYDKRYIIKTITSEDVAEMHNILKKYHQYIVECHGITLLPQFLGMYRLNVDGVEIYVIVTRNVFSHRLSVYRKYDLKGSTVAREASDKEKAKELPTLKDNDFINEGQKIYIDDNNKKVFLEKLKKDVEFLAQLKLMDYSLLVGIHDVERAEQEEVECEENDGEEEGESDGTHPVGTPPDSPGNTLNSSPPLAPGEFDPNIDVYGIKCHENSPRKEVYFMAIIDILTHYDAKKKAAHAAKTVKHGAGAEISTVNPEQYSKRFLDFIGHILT
pIC50: −log10 of the molar value.
measure: pIC50

{"columns": ["compound", "measure", "number"],
 "data": [
  ["COc1cc(/C=C(\\C#N)C(=O)c2ccc(O)c(O)c2)cc(I)c1O [I-OMe-AG-538]", "pIC50", 5.68]
]}

Source: paper PMC5736559
